assay target: Thal (tryptophan 6-halogenase) (Streptomyces albogriseolus, UniProt A1E280)
Construct: recombinant, E. coli BL21(DE3), pET28b; tag residues seen in 7CU1; two protomers per asymmetric unit; GFP11 C-terminal tag only in the mutant library screen
Sequence (A1E280 whole entry): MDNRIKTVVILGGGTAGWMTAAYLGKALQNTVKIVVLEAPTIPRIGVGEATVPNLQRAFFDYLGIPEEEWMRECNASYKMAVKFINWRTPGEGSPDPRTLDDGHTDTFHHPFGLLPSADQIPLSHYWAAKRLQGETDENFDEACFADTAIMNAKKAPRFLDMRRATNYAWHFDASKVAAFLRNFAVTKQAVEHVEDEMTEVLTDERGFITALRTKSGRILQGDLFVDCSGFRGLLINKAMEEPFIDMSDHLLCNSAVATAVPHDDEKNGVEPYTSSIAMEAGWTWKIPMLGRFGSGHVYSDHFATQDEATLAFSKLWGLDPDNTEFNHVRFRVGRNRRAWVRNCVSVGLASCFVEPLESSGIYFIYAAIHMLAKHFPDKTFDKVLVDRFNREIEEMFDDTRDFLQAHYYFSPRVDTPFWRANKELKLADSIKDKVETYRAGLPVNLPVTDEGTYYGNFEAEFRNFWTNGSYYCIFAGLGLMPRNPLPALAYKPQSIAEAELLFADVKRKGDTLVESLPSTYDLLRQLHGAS
assay text: stopped-flow fluorescence, kobs of C4a-hydroxyflavin formation versus halide
particulars: binding to the C4a-hydroperoxyflavin form of the enzyme; two-step model; 20 mM potassium phosphate pH 7.2, 25 °C
attribute measured: pKd
When answering, recall that pKd equals minus log10 of the concentration in mol/L, and write that number alone.

Exercise: Would you mind telling me what pKd value was observed for I ?
Key: 4.19
